Target: Toll-like receptor 4 (Homo sapiens) + Myeloid differentiation primary response protein MyD88 (Homo sapiens) (UniProt O00206+Q99836)
Sequence (O00206 whole entry, looked up): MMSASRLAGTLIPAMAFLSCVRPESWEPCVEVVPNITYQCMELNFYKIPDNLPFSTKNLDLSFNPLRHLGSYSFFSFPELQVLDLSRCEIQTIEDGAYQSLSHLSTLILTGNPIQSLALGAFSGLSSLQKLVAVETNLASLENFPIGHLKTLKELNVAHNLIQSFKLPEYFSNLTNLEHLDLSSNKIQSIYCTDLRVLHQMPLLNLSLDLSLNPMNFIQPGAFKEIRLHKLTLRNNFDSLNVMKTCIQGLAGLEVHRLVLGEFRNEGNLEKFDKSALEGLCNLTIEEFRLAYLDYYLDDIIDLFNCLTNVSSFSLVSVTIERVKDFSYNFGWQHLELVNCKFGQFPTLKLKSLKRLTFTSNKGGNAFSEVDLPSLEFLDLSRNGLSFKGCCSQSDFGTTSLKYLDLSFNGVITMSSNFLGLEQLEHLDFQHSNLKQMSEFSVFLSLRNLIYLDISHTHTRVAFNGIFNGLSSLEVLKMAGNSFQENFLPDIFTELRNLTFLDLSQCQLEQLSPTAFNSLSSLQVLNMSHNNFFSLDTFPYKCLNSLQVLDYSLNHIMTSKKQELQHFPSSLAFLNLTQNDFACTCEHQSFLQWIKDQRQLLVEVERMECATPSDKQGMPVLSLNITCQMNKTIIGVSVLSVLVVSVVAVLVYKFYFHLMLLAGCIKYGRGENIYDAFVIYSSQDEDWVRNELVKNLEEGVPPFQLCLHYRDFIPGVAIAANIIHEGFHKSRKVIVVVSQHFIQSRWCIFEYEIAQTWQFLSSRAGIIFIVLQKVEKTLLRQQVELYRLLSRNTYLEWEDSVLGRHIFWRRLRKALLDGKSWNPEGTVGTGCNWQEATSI
Sequence (Q99836 whole entry, looked up): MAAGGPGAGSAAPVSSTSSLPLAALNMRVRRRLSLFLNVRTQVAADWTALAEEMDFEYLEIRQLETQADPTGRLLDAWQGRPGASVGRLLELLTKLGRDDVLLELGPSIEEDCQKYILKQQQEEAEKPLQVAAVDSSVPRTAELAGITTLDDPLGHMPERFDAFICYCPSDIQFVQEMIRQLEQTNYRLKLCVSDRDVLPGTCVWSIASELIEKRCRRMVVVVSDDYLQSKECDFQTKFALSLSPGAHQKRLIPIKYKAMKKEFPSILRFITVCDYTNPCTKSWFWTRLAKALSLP
Test: disruptors of TLR4 binding to MyD88 – cell-based, HeLa CL3-4, BLA complementation, FRET ratio, primary screen (AID 861);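 note: 0% = vehicle and 100% = reference inhibitor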
Conditions: HeLa CL3-4 TLR4/MyD88 BLA complementation, at 8.4 µM, hits give high values
Among all 200,000 compounds or so, about 360 (0.18%) were called active. Only a selection was taken, and actives are over-represented in it overall.
Recorded endpoint: inhibition (%)
# unit: % | format: bare number

query: Could you share which inhibition value was measured for O=C(Cc1csc(Nc2nc(=S)[nH]c3ccccc23)n1)NCCCN1CCN(c2cccc(Cl)c2)CC1 ?
result: -1.51

query: Do the same for CCN(CC)CCn1c(/N=C/c2cc(Br)ccc2O)nc2ccccc21 please
result: 7.14

query: Do the same for CC(=O)c1c(C)[nH]c(C(=O)OCC(=O)Nc2sc3c(c2C#N)CCCC3)c1C please
result: -2.59

query: Do the same for CCc1cccc(CC)c1NC(=O)COc1ccccc1C(=O)c1cc(C#N)c(=O)n(C2CCCCC2)c1 please
result: -16.2

query: Do the same for CCOc1ccc(-n2cnnn2)cc1S(=O)(=O)N1CCC(C)CC1C (configuration not stated) please
result: -2.33

query: Do the same for Cc1[nH]c2ccccc2c1/C=N\NC(=O)Cn1nnc(-c2ccccc2)n1 please
result: -5.01

Others:
query: Could you share which inhibition value was measured for Cc1cccc(C(=O)N2CCc3c([nH]c4ccccc34)C2CC(C)C)n1 (configuration not stated) ?
result: -16.4

query: Do the same for COc1cc(NC(=S)N2CCCC(C)C2)cc(OC)c1OC (configuration not stated) please
result: 6.42

query: Do the same for CN(C)c1ccc(C=NCCc2ccc(S(N)(=O)=O)cc2)cc1 please
result: -10.3

query: Do the same for O=C(Cn1nnc(-c2ccccc2)n1)N/N=C/c1ccc(-c2ccc(Cl)cc2)o1 please
result: 8.21

query: Do the same for CC(C)(C)NC(=O)NC(=O)COC(=O)Cc1ccc(Cl)cc1Cl please
result: 16.8

query: Do the same for Cc1ccc(Nc2c(F)c(F)c(F)c(F)c2C(=O)O)c(C)c1 please
result: -9.32

query: Do the same for O=C(c1ccc2ccccc2n1)N1CCN(c2ccccc2Cl)CC1 please
result: -7.41

query: Do the same for Fc1cccc2ncnc(OCc3ccccc3)c12 please
result: -8.75

query: Do the same for CCOc1ccc(N2C(=O)/C(=C/c3ccc(C)o3)N(C)C2=S)cc1 please
result: -6.16

query: Do the same for CN(c1ccccc1)c1nc(N)c([N+](=O)[O-])c(NCc2ccco2)n1 please
result: -1.5

====

Biological target: Toll-like receptor 4 (Homo sapiens) + Myeloid differentiation primary response protein MyD88 (Homo sapiens) (UniProt O00206+Q99836)
Assay: disruptors of TLR4 binding to MyD88 – cell-based, HeLa CL3-4, BLA complementation, FRET ratio, primary screen (AID 861);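 note: 0% = vehicle and 100% = reference inhibitor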
Conditions: HeLa CL3-4 TLR4/MyD88 BLA complementation, at 8.4 µM
Hit rate of the full screen: of about 200,000 compounds, about 360 (0.18%) were called active. No stated cut-off is given here; in the data, active means inhibition above about 25%; inactive means the rest. For the sample, actives were picked, then their nearest neighbours and some compounds at random.
Please answer using one outcome listed in T for active, F for inactive

Solved entries:
query: For O=C(CN1CCCC1)N1CCN(c2ccccc2)CC1 , which call appears in the assay record?
result: F

query: Do the same for Nc1cc(C(F)(F)F)ccc1N1CCOCC1 please
result: F

query: Do the same for O=C(/C=C/c1ccccc1)c1ccoc1 please
result: F

query: Do the same for CCN(CC)S(=O)(=O)c1cc([N+](=O)[O-])ccc1N=Nc1c(O)n(C)c2ccccc12 please
result: F

query: Do the same for CC(=O)NCCc1nc2cc(NC(=O)c3ccccc3)ccc2n1C please
result: F

Please turn your attention to the following entry.
query: For COc1cccc(/C=C(/CC(=O)Nc2ccc(N3CCOCC3)cc2)c2nc3ccccc3s2)c1 , which call appears in the assay record?
result: F

====

Biological target: Toll-like receptor 4 (Homo sapiens) + Myeloid differentiation primary response protein MyD88 (Homo sapiens) (UniProt O00206+Q99836)
Assay: disruptors of TLR4 binding to MyD88 – cell-based, HeLa CL3-4, BLA complementation, FRET ratio, primary screen (AID 861);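 note: 0% = vehicle and 100% = reference inhibitor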
Conditions: HeLa CL3-4 TLR4/MyD88 BLA complementation, at 8.4 µM, hits give high values
About 360 (0.18%) of roughly 200,000 compounds were called active. Many of the other results were omitted from the sample, so actives are more common in it than they were.
Recorded endpoint: inhibition (%)
# unit: % | format: bare number

query: Could you share which inhibition value was measured for O=C(c1ccc(Cl)cc1)c1cnc(Nc2ccccc2)s1 ?
result: 25.8

Others:
query: Could you share which inhibition value was measured for C=C(C)C1CC=C(C)/C(=N\NC(=O)CNc2ccccc2OC)C1 (stereo not given) ?
result: 3.79

query: Do the same for CCCCN(C(=O)COc1ccc(NC(C)=O)cc1)C1CCS(=O)(=O)C1 (stereo not given) please
result: 5.19

query: Do the same for CC(C)(C)C(=O)c1cnc(Nc2ccccc2)s1 please
result: -8.48

query: Do the same for O=C(CSc1nnc(Nc2ccccc2)s1)Nc1cccnc1Cl please
result: -6.41

====

Biological target: Toll-like receptor 4 (Homo sapiens) + Myeloid differentiation primary response protein MyD88 (Homo sapiens) (UniProt O00206+Q99836)
Assay: disruptors of TLR4 binding to MyD88 – cell-based, HeLa CL3-4, BLA complementation, FRET ratio, primary screen (AID 861);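 note: 0% = vehicle and 100% = reference inhibitor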
Settings: HeLa CL3-4 TLR4/MyD88 BLA complementation, at 8.4 µM, hits give high values
Hit rate of the full screen: of about 200,000 compounds, about 360 (0.18%) were called active. The sample holds actives, similar compounds and a random draw of the others, so the mix is not that of the screen.
Recorded endpoint: inhibition (%)
# unit: % | format: bare number

query: Could you share which inhibition value was measured for Cc1nccn1CCCNC(=O)CC1C(=O)NCCN1Cc1ccc(Cl)c(F)c1 (stereo unspecified) ?
result: -15.6

query: Do the same for CCCCCCCCn1c2c(c(=N)c3c1CCC3)CCCC2 please
result: 28.8

query: Do the same for CC(=O)Nc1ccc(NC(=O)COc2ccc(S(=O)(=O)NC(C)c3ccccc3)cc2)cc1 (stereo unspecified) please
result: -6.49

query: Do the same for COC(=O)/C(=C1\Oc2ccc(C(C)(C)C)cc2S1)C(F)(F)F please
result: 6.06

query: Do the same for CSC(=S)N/N=C/c1c[nH]c2ccccc12 please
result: -16.8

query: Do the same for Cc1nc(N=C(N)N)nc2c(C)cccc12 please
result: -6.85

query: Do the same for Cc1ccccc1-n1cc(CNC(=O)CC2C(=O)NCCN2C/C=C/c2ccccc2)cn1 (stereo unspecified) please
result: -13.3

query: Do the same for CCn1cc(-c2cc(C(=O)O)on2)c(C)n1 please
result: 1.59

Here is the next item to consider.
query: Could you share which inhibition value was measured for S=c1[nH]nc(-c2ccccc2)n1/N=C/c1c[nH]c2ccccc12 ?
result: -1.22

====

Molecular target: Toll-like receptor 4 (Homo sapiens) + Myeloid differentiation primary response protein MyD88 (Homo sapiens) (UniProt O00206+Q99836)
Assay: disruptors of TLR4 binding to MyD88 – cell-based, HeLa CL3-4, BLA complementation, FRET ratio, primary screen (AID 861);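 note: 0% = vehicle and 100% = reference inhibitor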
Conditions: HeLa CL3-4 TLR4/MyD88 BLA complementation, at 8.4 µM, hits give high values
Hit rate of the full screen: of about 200,000 compounds, about 360 (0.18%) were called active. Shown is part of a subset that was picked to be rich in actives.
Examples of compounds with documented inhibition follow.

Sample records with inhibition:
query: Could you share which inhibition value was measured for CCOc1ccc(C(C)=O)cc1COC(=O)c1cnc(Cl)c(Cl)c1 ?
result: 15.1% (inactive)

query: Do the same for CCO/C=C1\C(=O)N(c2ccc(OCC)cc2)C(=O)c2ccccc21 please
result: 5.91% (inactive)

query: Do the same for CC(CC(=O)O)C(=O)c1ccc(Cl)c([N+](=O)[O-])c1 (stereo unspecified) please
result: 1.72% (inactive)

query: Do the same for O=C(Nc1ccc(-n2ccnc2P(=O)(O)c2ccccc2)cc1)c1ccccc1Br please
result: -8.07% (inactive)

query: Do the same for CCCCCCOc1ccc(OC(=O)c2cccnc2)cc1 please
result: -5.46% (inactive)

Others:
query: Could you share which inhibition value was measured for COc1ccc(-c2[nH]ncc2/C=N/NC(=O)c2cc(Br)ccc2O)c(OC)c1 ?
result: -5.73% (inactive)

====

Target: Toll-like receptor 4 (Homo sapiens) + Myeloid differentiation primary response protein MyD88 (Homo sapiens) (UniProt O00206+Q99836)
Test: disruptors of TLR4 binding to MyD88 – cell-based, HeLa CL3-4, BLA complementation, FRET ratio, primary screen (AID 861);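 note: 0% = vehicle and 100% = reference inhibitor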
Settings: HeLa CL3-4 TLR4/MyD88 BLA complementation, at 8.4 µM
Screen size: about 200,000 compounds; about 360 (0.18%) were called active. Cut-off read from the data, not from the text of the source: active = inhibition above about 25%; inactive = the rest. Shown is part of a subset that was picked to be rich in actives.
Please answer using one outcome listed in active, inactive

query: For Oc1ccccc1C=NC1CCCCC1N=Cc1ccccc1O (stereo unspecified) , which call appears in the assay record?
result: inactive

query: Do the same for CCOc1cccc(/C=C/c2ccc3ccccc3n2)c1OC(C)=O please
result: inactive

query: Do the same for Cc1ccccc1OCCOc1ccc([N+](=O)[O-])cc1/C=N/n1cnnc1 please
result: inactive
